Entries and their PC Contents, Tianzhu, After Digestion values follow.
# Method notes: PC content of red wine before and after in vitro simulated gastrointestinal digestion (HPLC)
# Type: in vitro ADME
Marks after values point to notes of the source that are not given here.

Solved entries (count: 3):
* COc1cc(-c2[o+]c3cc(O)cc(O)c3cc2OC2OC(COC(C)=O)C(O)C(O)C2O)cc(O)c1O (stereo not drawn) | 1.17 ± 0.04 ^b mg/L
* O.Oc1cc(O)c2c(c1)O[C@H](c1ccc(O)c(O)c1)[C@@H](O)C2 | 16.7 ± 0.75 ^b mg/L
* COc1cc(/C=C/C(=O)OC(C(=O)O)C(O)C(=O)O)ccc1O (stereo not drawn) | 4.11 ± 0.18 ^c mg/L

Query block: Requested read-out: PC Contents, Tianzhu, After Digestion. Entry: COc1cc(-c2oc3cc(O)cc(O)c3c(=O)c2O[C@@H]2O[C@H](CO)[C@@H](O)[C@H](O)[C@H]2O)cc(OC)c1O
Result block: 30.19 ± 1.03 ^b mg/L

Query block: Requested read-out: PC Contents, Tianzhu, After Digestion. Entry: COc1cc(-c2oc3cc(O)cc(O)c3c(=O)c2O[C@@H]2O[C@H](CO)[C@@H](O)[C@H](O)[C@H]2O)cc(O)c1O
Result block: 28.63 ± 0.86 ^b mg/L

Query block: Requested read-out: PC Contents, Tianzhu, After Digestion. Entry: COc1cc(-c2[o+]c3cc(O)cc(O)c3cc2O[C@@H]2O[C@H](CO)[C@@H](O)[C@H](O)[C@H]2O)cc(O)c1O
Result block: 5.33 ± 0.21 ^b mg/L

* * *

# Method notes: Caco-2 transepithelial transport assay of digested red wine
# Type: in vitro ADME, human
# Assay conditions: human, Caco-2, apical to basolateral, digested Tianzhu red wine; read-out: Apparent Permeability Coefficients, Tianzhu
Measured endpoint: Papp at 6 h (×10⁻⁶ cm/s)

Solved entries (count: 2):
• O=c1c(O[C@@H]2O[C@H](CO)[C@@H](O)[C@H](O)[C@H]2O)c(-c2ccc(O)c(O)c2)oc2cc(O)cc(O)c12 = 3.87
• O=C(/C=C/c1ccc(O)c(O)c1)O[C@@H](C(=O)O)[C@@H](O)C(=O)O = 8.45

(A) Oc1cc(O)c2c(c1)O[C@H](c1ccc(O)c(O)c1)[C@H](O)C2 [Epicatechin]
(B) CCOC(=O)c1cc(O)c(O)c(O)c1 [Ethyl gallate]
(C) C[C@@H]1O[C@@H](O[C@H]2C(=O)c3c(O)cc(O)cc3O[C@@H]2c2ccc(O)c(O)c2)[C@H](O)[C@H](O)[C@H]1O
Query block: Put the compounds in ascending order of Papp at 6 h. Returns: the labels arranged in the requested order.
Result block: C, A, B

* * *

Entries and their PC Contents, Cabernet, After Digestion values follow.
# Method notes: PC content of red wine before and after in vitro simulated gastrointestinal digestion (HPLC)
# Type: in vitro ADME
Marks after values point to notes of the source that are not given here.

- COc1cc(-c2[o+]c3cc(O)cc(O)c3cc2O[C@@H]2O[C@H](CO)[C@@H](O)[C@H](O)[C@H]2O)cc(O)c1O: 5.79 ± 0.27 ^b mg/L
- COc1cc(-c2oc3cc(O)cc(O)c3c(=O)c2O[C@@H]2O[C@H](CO)[C@@H](O)[C@H](O)[C@H]2O)cc(OC)c1O: 26.34 ± 0.90 ^b mg/L
- COc1cc(/C=C/C(=O)OC(C(=O)O)C(O)C(=O)O)ccc1O (stereo not shown): 3.11 ± 0.12 ^b mg/L

Query block: Requested read-out: PC Contents, Cabernet, After Digestion. Entry: COc1cc(-c2[o+]c3cc(O)cc(O)c3cc2OC2OC(COC(C)=O)C(O)C(O)C2O)cc(O)c1O (stereo not shown)
Result block: 1.05 ± 0.05 ^b mg/L

Query block: Requested read-out: PC Contents, Cabernet, After Digestion. Entry: COc1cc(-c2oc3cc(O)cc(O)c3c(=O)c2O[C@@H]2O[C@H](CO)[C@@H](O)[C@H](O)[C@H]2O)cc(O)c1O
Result block: 29.78 ± 1.28 ^b mg/L

Query block: Requested read-out: PC Contents, Cabernet, After Digestion. Entry: O=C(/C=C/c1ccc(O)cc1)O[C@@H](C(=O)O)[C@@H](O)C(=O)O
Result block: 1.96 ± 0.08 ^b mg/L

Query block: Requested read-out: PC Contents, Cabernet, After Digestion. Entry: O.Oc1cc(O)c2c(c1)O[C@H](c1ccc(O)c(O)c1)[C@@H](O)C2
Result block: 25.4 ± 0.86 ^b mg/L
